Literature-derived IC50 for Cytochrome P450 2D6 (Homo sapiens) follows.
observation-type: IC50 (µM)

Examples from the recorded data:
{"molecule": "O=C1Nc2ccccc2[C@]12C[C@H]2c1ccc2c(/C=C/c3ccncc3)n[nH]c2c1 (relative stereo)", "IC50 [µM]": 0.7}
{"molecule": "Cc1ccc2c(C(=O)O)c(O)c(-c3ccc(Cl)cc3)nc2c1C", "IC50 [µM]": 17}

[P] CC(C)(N)C(=O)N[C@H](COCc1ccccc1)c1nnnn1[C@H](CC#N)COc1ccccc1O
[Q] Fc1cc(OC(F)(F)C(F)F)cc([C@@](Cc2ccccc2)(Nc2nc3cc(F)ccc3[nH]2)c2ccc(Cl)cn2)c1
[R] CC(C)N1CCC[C@H](Cn2cnc3ccc(-c4ccc(Cl)cc4)cc3c2=O)C1
[S] Fc1cccnc1OCc1cn(C2CCC(Cl)C(OC(F)F)C2)nn1 (centres undefined)
[T] O=C(c1cc2ccc(F)cc2[nH]1)N1C[C@]2(CCN(C3CCNC3)C2)c2ccccc21 (some centres undefined)
Given 5 molecules, produce a descending ranking by IC50. The response must list the labels following the requested ordering.
Q, P, S, T, R
(Q: 29 µM, P: 5.1 µM, S: 2.2 µM, T: 0.655 µM, R: 0.2 µM)

* * *

Published pIC50 for Cytochrome P450 2D6 (Homo sapiens, UniProt P10635), assembled from different documents, is shown next.
pIC50: −log10 of the molar value.

# annotated cases, reported pIC50 shown
{"molecule": "Nc1oncc1-c1ccsc1", "pIC50": "< 5.00"}
{"molecule": "CC(C)OC(=O)c1ccc(NC(=O)N[C@@H](Cc2ccc(O)cc2)C(=O)N[C@H]2CCC[N+](C)(Cc3cccc(O)c3)C2)cc1.[I-] (stereo partly drawn)", "pIC50": 5.40}
{"molecule": "Cc1nc2cccc(C(F)(F)F)c2c(=O)n1-c1ccc(OCCCN2CCCC2)cc1", "pIC50": "< 4.57"}

Reported pIC50, molecule CC1(C(=O)NS(=O)(=O)c2ccc(Cl)s2)CCN(c2nc3c(cc2C#N)C(=O)OC3)CC1 : ____
< 4.30

And the next one, O=C(OCc1ccccc1)N1CCC(CNc2ccccn2)CC1 ?
< 4.60

What do we get for N=C(N)NC(=O)c1ccc(C2CCN(C(=O)C3CC3)CC2)c(C(F)(F)F)c1 ?
4.77

Same again, this time with FC(F)(F)c1nccc2cc(Nc3n[nH]c4ncccc34)ccc12
< 4.52

And what about the molecule Cc1ncc(-c2ccc(Nc3nc4c(s3)CCCC4c3ccccc3)cc2)o1 (stereo not drawn) ?
> 6.30

Subsequent entry: COC(=O)C1=C(Cn2cnnn2)NC(C)=C(C#N)[C@H]1c1ccc(F)cc1Cl
< 5.00

* * *

For reference, the following IC50 results for Cytochrome P450 2D6 (Homo sapiens) were taken from various sources.

What IC50 value was documented for this compound, CCN1CCC[C@H](Cn2c(-c3ccccc3C)nc3ccc(-c4ccc(Cl)cc4)cc3c2=O)C1 ?
6.1 µM

Let us now turn to O=C(N1CCCCC1)N1CC(O[C@@H](c2ccc(Cl)cc2)c2cccnc2Cl)C1
> 10 µM

What do you have for COc1cnc(C(=O)Nc2ccc(F)c([C@]3(C)C=CSC(N)=N3)c2)cn1 ?
< 1 µM

Let us now turn to CN(C)C(=O)c1ccc(CN2CCC(c3ccc(C(=O)Nc4ccccc4N)cc3)CC2)cc1
> 10 µM

Repeat for the following compound: CC(C)C(=O)N1CCC(Oc2ccc3c(c2)CCC2(CCN(C4CCC4)CC2)O3)CC1
> 30 µM

Now the compound CC(C)c1nc(CN(C)C(=O)N[C@@H](CCN2CCOCC2)C(=O)N[C@H](CCN(Cc2ccccc2)C(=O)OCc2cncs2)Cc2ccccc2)cs1
1.3 µM

Next compound: CCCCC[C@@H](Cc1ccc(C(=O)NCCC(=O)O)cc1)C(=O)c1cc2cc(Cl)ccc2n1-c1cccc(C(F)(F)F)c1
> 11 µM

Item: N[C@H]1CC[C@H](Nc2cc(Br)cc3cc(C(=O)O)oc23)CC1
> 10 µM

// repeat for CNC(=O)[C@@]12C[C@@H]1[C@@H](n1cnc3c(NCCc4ccc(OC)c(O)c4)nc(OCC(C)C)nc31)[C@H](O)[C@@H]2O and report
> 30 µM

Now try COc1cc(C[C@H]2COC(=O)[C@@H]2Cc2cc(OC)c(OC)c(OC)c2)cc(OC)c1OC .
> 100 µM

Try this compound too: O=C(Nc1ccc(F)cn1)c1cc(Oc2cncc(F)c2)cn2ccnc12
> 30 µM

Then Cc1nnc2n1-c1sccc1CN(C1CCN(C(=O)C3(F)CCN(Cc4ccnc(N)c4)CC3)CC1)C2 ?
> 30 µM

Quick one: C[C@H]([C@@H](c1ccc2cc(OCC3(C(=O)O)CCCCC3)ccc2c1)n1ccnc1)N(C)C
> 5 µM

Similarly, Cc1nsc(-c2ccc(Nc3nc4c(s3)CCCC4c3ccccc3)cc2)n1 (stereo not drawn) ?
< 0.5 µM

And for O=C(O)CCCOc1cccc(CCCCCCOc2cc(-c3ccccc3)cc(-c3ccccc3)n2)c1CCC(=O)O ?
> 7.5 µM

Cool, now COCCOc1ccc(N2CCN(CCn3c(=O)n(C)c4c3nc(N)n3nc(-c5nccs5)nc43)CC2)cc1F
> 10 µM

Repeat for the following compound: CN1CCc2c(C(F)(F)F)nn(-c3ccc(CN4CCCC4=O)cc3)c2C1
> 10 µM

Next entry: CC1(c2ccccc2)CCCN(C(=O)Nc2ccc(-c3ccccc3)cc2)C1 (stereo not drawn)
> 10 µM
